# test-system: full length human TREX1 (Homo sapiens, UniProt Q9NSU2)
# Construct: N-terminally His-Tev tagged full length human TREX1; His-Tev (His tag with TEV site) (N)
# assay-details: TREX1 Biochemical Assay (fluorescence assay, degradation of dsDNA substrate)
# condition-info: 150 pM TREX1, 60 nM dsDNA substrate, 25 minutes at room temperature
pIC50: −log10 of the molar value.
attribute-measured: pIC50

Task item: What measured pIC50 goes with Cc1nn(C)cc1-c1cc(N2CCC(O)(c3ccc(F)c(F)c3)CC2)ccn1 ?
Reply: 5.00 to 6.00

Task item: Returns the measured pIC50 for the input molecule. Input: OC1(c2ccc(F)cc2)CCN(c2cncc(-c3ccncc3)n2)CC1
Reply: 5.00 to 6.00

Task item: # get_value(readout='pIC50', item= OC1(c2ccc(F)cc2)CCN(c2ccc3ccccc3n2)CC1 )
Reply: < 5.00

Task item: For the molecule shown here, O=C(NCCc1ccccn1)c1cncc(N2CCC(O)(c3ccc(F)cc3)CC2)n1 , give the reported pIC50.
Reply: 5.00 to 6.00

Task item: Given Cc1nn(C)c(C)c1-c1cncc(N2CCC(O)(c3ccc(F)c(F)c3)CC2)n1 , state its recorded pIC50.
Reply: > 7.00

Task item: Requested read-out: pIC50. Entry: CCn1cc(-c2cncc(N3CCC(O)(c4ccc(F)c(F)c4)CC3)n2)c(C)n1
Reply: > 7.00

Task item: For the molecule Cc1nn(C)cc1-c1nccc(N2CCC(O)(c3ccc(F)c(F)c3)CC2)n1 , what pIC50 is on record?
Reply: 5.00 to 6.00

Task item: // query pIC50 value for entry Cc1nn(C)cc1-c1cc(N2CCC(O)(c3ccc(F)c(F)c3)CC2)cnn1
Reply: 5.00 to 6.00

Task item: For the molecule Cc1nn(C)cc1-c1cncc(N2CCC(O)(c3ccc(F)c(F)c3)CC2)n1 , what pIC50 is on record?
Reply: > 7.00

* * *

# test-system: full length human TREX1 (Homo sapiens)
# Construct: N-terminally His-Tev tagged full length human TREX1; His-Tev (His tag with TEV site) (N)
# Sequence (Q9NSU2 1-314): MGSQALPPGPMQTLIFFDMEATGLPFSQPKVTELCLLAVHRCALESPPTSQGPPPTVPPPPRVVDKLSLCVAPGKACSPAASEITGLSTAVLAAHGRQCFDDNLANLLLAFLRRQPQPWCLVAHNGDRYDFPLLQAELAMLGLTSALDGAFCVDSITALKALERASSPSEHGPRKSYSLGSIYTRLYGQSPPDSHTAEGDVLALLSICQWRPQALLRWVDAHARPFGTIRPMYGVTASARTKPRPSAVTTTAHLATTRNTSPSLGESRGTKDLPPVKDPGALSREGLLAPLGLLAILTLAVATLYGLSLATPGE
# assay-details: TREX1 Biochemical Assay (fluorescence assay, degradation of dsDNA substrate)
# condition-info: 150 pM TREX1, 60 nM dsDNA substrate, 25 minutes at room temperature
pIC50: −log10 of the molar value.
Please go through the items and note down their pIC50.

Task item: For the compound Cc1nn(C)cc1-c1cncc(N2CCC(O)(c3cc(F)c(F)c(F)c3)CC2)n1 , what pIC50 is on record?
Reply: > 7.00

Task item: Which pIC50 reading was recorded for the compound Cc1nn(C)cc1-c1ccnc(N2CCC(O)(c3ccc(F)c(F)c3)CC2)c1 ?
Reply: < 5.00

Task item: Quick check: pIC50 of Cc1nn(C)cc1-c1nsc(N2CCC(O)(c3ccc(F)c(F)c3)CC2)n1 ?
Reply: 6.00 to 7.00

Task item: Entry Cc1nc(-c2cn(C)nc2Cc2ccccc2)cc(N2CCC(O)(c3ccc(F)c(F)c3)CC2)n1 : reported pIC50 = ?
Reply: 6.00 to 7.00

Task item: pIC50 for OC1(c2ccccc2)CCN(c2cncc(-n3cccn3)n2)CC1 ?
Reply: < 5.00

Task item: Reported pIC50 for N#Cc1cccc(-c2cncc(N3CCC(O)(c4ccc(F)cc4)CC3)n2)c1 : what is it?
Reply: < 5.00

Task item: Which pIC50 value is on record for Cn1cc(-c2cncc(N3CCC(O)(CCc4ccccc4)CC3)n2)cn1 ?
Reply: < 5.00

Task item: I'd like to know its pIC50. The compound in question is OC1(c2ccc(F)cc2)CCN(c2cncc(-c3cnn(C(F)F)c3)n2)CC1
Reply: 5.00 to 6.00

Task item: Tell me the measured pIC50 of OC1(c2ccc(F)cc2)CCN(c2ccc3nccn3n2)CC1 , please.
Reply: 5.00 to 6.00

Task item: Give the measured pIC50 of Cc1ccc(-c2cncc(N3CCC(O)(c4ccc(F)cc4)CC3)n2)cn1 .
Reply: 6.00 to 7.00

Task item: Data request, read-out pIC50, for Cc1nn(C)cc1-c1nnc(N2CCC(O)(c3ccc(F)c(F)c3)CC2)s1
Reply: 5.00 to 6.00

Task item: Item under review: O=C(NCc1ccncc1)c1cncc(N2CCC(O)(c3ccc(F)cc3)CC2)n1 . Reported pIC50?
Reply: < 5.00

Task item: I would be grateful if you could share the reported pIC50 for Cc1nn(C)cc1-c1c[nH]c(=O)c(N2CCC(O)(c3ccc(F)c(F)c3)CC2)n1 .
Reply: 6.00 to 7.00

Task item: What value of measured pIC50 is listed for Cc1cc(C2(O)CCN(c3cncc(-c4cn(C)nc4C)n3)CC2)ccc1F ?
Reply: 6.00 to 7.00

Task item: Consider the compound shown here: COc1ccc(-c2cncc(N3CCC(O)(c4ccc(F)cc4)CC3)n2)cc1 What is its recorded pIC50?
Reply: < 5.00

Task item: Any idea what its pIC50 is? The compound is OC1(c2ccc(F)cc2)CCN(c2cnc3ccccc3n2)CC1
Reply: 5.00 to 6.00

Task item: Which value of pIC50 has been reported for N#Cc1ccccc1-c1cncc(N2CCC(O)(c3ccc(F)cc3)CC2)n1 in the records?
Reply: 5.00 to 6.00

Task item: Dear colleague, I am looking for the recorded pIC50 of the following compound: Cn1cc(-c2cncc(N3CCC(O)(Cc4ccccc4)CC3)n2)cn1
Reply: < 5.00

Task item: pIC50 for Cc1ccc(-c2cncc(N3CCC(O)(c4ccc(F)c(F)c4)CC3)n2)c(C)n1 ?
Reply: 6.00 to 7.00

Task item: Dear colleague, I am looking for the recorded pIC50 of the following compound: Cc1nn(C)cc1-c1csc(N2CCC(O)(c3ccc(F)c(F)c3)CC2)n1
Reply: 5.00 to 6.00

Task item: Query (compound): Cc1noc(C)c1-c1cncc(N2CCC(O)(c3ccc(F)cc3)CC2)n1 ; field requested: pIC50
Reply: 5.00 to 6.00

Task item: For the compound Cc1noc(C)c1-c1cncc(N2CCC(O)(c3ccc(F)c(F)c3)CC2)n1 , what pIC50 is on record?
Reply: 5.00 to 6.00

Task item: May I ask what pIC50 has been recorded for OC1(c2ccc(F)cc2)CCN(c2cncc(-c3ccccc3F)n2)CC1 ?
Reply: 5.00 to 6.00

Task item: So what's the measured pIC50 for this one? Cn1cc(-c2cncc(N3CCC(O)(c4ccc(F)cc4)CC3)n2)cn1
Reply: 5.00 to 6.00

Task item: Please look up its pIC50: Cc1nn(C)cc1-c1cncc(N2CC[C@@](O)(c3ccc(F)c(F)c3)C[C@H]2C)n1 (racemic)
Reply: 5.00 to 6.00

Task item: Reported pIC50, compound Cc1nn(C)cc1-c1cc(C(C)(C)O)cc(N2CCC(O)(c3ccc(F)c(F)c3)CC2)n1 : ____
Reply: > 7.00

Task item: Would you kindly share the measured pIC50 for Cc1nn(C)cc1-c1cc(C(=O)NCc2ccccc2)cc(N2CCC(O)(c3ccc(F)c(F)c3)CC2)n1 ?
Reply: 6.00 to 7.00

Task item: Reported pIC50, compound OC1(c2ccc(F)cc2)CCN(c2cncc(-c3cccc(F)c3)n2)CC1 : ____
Reply: 5.00 to 6.00

Task item: Could you tell me which pIC50 is on file for Cc1nc(-c2cn(C)nc2C)c(F)c(N2CCC(O)(c3ccc(F)c(F)c3)CC2)n1 ?
Reply: 6.00 to 7.00

Task item: Entry CNC(=O)c1ccc(-c2cncc(N3CCC(O)(c4ccc(F)cc4)CC3)n2)cc1 : reported pIC50 = ?
Reply: 5.00 to 6.00

Task item: Which pIC50 is listed for CN(C)C(=O)c1cccc(-c2cncc(N3CCC(O)(c4ccc(F)cc4)CC3)n2)c1 ?
Reply: 5.00 to 6.00

Task item: So what does the record say about pIC50 for OC1(c2ccc(F)cc2)CCN(c2cncc(-c3cnn(Cc4ccccc4)c3)n2)CC1 ?
Reply: 5.00 to 6.00

Task item: Quick check: pIC50 of Cc1c(-c2cncc(N3CCC(O)(c4ccc(F)cc4)CC3)n2)cnn1C ?
Reply: 5.00 to 6.00

Task item: What measured pIC50 goes with Cc1nn(C)cc1-c1cc(C(=O)N2CCCCC2)cc(N2CCC(O)(c3ccc(F)c(F)c3)CC2)n1 ?
Reply: > 7.00

Task item: Sample COC(=O)c1cc(-c2cnn(C)c2)nc(N2CCC(O)(c3ccc(F)cc3)CC2)c1 — what was its pIC50?
Reply: 5.00 to 6.00
